Source listed as patent US20220064275A1.

# Measured on: hLTBP1-proTGFβ1 complex made by transfected cells (cell-based potency assay) (human, UniProt Q14766 347-1721; P01137 30-390)
# Sequence (Q14766 347-1721, chain 1 of 2): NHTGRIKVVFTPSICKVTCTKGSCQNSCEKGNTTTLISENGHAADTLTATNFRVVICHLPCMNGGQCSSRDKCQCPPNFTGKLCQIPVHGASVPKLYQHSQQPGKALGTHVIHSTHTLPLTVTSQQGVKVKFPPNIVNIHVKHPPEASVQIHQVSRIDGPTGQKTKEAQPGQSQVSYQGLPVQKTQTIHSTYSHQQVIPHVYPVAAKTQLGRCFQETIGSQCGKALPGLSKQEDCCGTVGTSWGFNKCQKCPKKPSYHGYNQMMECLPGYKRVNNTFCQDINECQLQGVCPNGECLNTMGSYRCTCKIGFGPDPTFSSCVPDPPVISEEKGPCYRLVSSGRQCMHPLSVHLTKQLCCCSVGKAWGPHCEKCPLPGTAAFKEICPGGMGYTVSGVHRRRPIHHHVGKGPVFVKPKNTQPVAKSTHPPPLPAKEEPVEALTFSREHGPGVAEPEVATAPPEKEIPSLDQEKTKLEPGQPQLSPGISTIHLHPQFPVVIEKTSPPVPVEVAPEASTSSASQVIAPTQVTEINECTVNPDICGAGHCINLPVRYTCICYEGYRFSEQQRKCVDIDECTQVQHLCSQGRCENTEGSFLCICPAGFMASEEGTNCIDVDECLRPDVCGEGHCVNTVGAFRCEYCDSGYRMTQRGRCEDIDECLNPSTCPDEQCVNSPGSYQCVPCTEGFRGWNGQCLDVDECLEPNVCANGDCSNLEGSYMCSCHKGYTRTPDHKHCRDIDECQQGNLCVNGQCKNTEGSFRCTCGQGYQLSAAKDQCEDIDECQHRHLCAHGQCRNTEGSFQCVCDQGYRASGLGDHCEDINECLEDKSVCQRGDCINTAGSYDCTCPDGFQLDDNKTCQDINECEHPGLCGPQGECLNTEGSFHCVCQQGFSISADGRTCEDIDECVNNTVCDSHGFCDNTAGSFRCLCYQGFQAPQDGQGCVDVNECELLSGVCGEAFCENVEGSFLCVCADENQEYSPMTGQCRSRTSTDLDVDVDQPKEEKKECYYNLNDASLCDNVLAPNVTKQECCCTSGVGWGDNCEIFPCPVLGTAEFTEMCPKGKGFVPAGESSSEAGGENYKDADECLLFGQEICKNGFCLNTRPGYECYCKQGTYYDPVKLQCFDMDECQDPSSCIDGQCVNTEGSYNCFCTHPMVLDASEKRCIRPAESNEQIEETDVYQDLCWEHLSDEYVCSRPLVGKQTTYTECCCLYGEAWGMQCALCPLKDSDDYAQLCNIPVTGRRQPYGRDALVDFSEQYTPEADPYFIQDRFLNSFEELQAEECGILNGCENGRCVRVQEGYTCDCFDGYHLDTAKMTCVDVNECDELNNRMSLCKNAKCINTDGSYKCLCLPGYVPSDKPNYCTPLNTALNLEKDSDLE
# Sequence (P01137 30-390, chain 2 of 2): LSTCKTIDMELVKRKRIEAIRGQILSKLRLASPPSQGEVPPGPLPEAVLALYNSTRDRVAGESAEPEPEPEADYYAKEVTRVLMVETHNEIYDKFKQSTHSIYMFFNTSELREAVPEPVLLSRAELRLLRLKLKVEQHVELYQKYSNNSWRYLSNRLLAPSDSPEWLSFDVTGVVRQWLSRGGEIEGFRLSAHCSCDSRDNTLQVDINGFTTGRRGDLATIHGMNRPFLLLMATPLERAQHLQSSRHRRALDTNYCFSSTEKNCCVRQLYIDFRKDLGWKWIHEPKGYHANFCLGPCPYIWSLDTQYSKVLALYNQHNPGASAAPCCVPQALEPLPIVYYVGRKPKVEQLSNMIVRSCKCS
# Method summary: cell-based or functional assay
// classify: if (IC50, reporter cell assay of TGFβ1 activation < 3 nM) Y else N

Prompt line: For Ab2 (antibody, human IgG4 S228P, kappa, V domains shown) VH: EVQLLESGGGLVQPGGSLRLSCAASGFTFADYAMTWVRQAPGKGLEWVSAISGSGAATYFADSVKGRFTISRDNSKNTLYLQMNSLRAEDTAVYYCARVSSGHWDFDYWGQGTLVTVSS VL: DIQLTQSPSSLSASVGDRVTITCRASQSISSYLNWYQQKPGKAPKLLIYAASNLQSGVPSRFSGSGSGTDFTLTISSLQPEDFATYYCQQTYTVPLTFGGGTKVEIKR , is the recorded IC50, reporter cell assay of TGFβ1 activation below the cut-off of 3 nM?
Response line: N

Prompt line: Consider next the binder Ab23 (antibody, V domains shown) VH: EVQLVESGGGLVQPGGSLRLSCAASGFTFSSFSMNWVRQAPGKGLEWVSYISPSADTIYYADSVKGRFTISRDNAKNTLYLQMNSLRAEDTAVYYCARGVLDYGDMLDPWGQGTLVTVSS VL: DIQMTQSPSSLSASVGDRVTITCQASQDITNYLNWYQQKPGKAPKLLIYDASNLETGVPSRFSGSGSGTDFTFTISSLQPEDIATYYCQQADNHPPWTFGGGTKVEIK in the same way.
Response line: Y

Prompt line: Consider next the binder Ab29 (antibody, IgG4, V domains shown) VH: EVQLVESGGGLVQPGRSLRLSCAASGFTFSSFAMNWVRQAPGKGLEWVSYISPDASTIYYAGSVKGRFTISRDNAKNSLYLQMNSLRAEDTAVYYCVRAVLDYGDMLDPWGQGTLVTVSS VL: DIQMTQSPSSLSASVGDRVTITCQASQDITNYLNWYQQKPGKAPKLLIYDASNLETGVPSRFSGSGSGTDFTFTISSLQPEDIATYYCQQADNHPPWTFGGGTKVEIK in the same way.
Response line: Y

Prompt line: Consider next the binder Ab21 (antibody, V domains shown) VH: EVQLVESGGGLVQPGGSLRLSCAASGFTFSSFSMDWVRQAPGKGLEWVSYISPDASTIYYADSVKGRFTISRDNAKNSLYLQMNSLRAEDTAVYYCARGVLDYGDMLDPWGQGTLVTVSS VL: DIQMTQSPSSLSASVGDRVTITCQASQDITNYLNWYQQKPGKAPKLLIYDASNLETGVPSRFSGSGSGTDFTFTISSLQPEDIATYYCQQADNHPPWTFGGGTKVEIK in the same way.
Response line: Y
